Please respond with reported Km for every item in the list.
Substrate: CC(=O)Oc1ccc([N+](=O)[O-])cc1
Experiment: purified protein
Format: biochemical, Sutcliffiella cohnii
Conditions: 50 mM Tris-HCl pH 8.0, 20 °C
Answers are plain numbers, in µM.

# annotated cases, reported Km shown
# PROTEIN, UNIT ANNOTATION, TEST VALUE
data = [
    ("EstN7 (Sutcliffiella cohnii) (protein, recombinant, purified from E. coli BL21(DE3); dimer; catalytic triad S157, D254, H284) MKNRIDPELRAMLDMFPPLNLDDVQATRKAMEEAAQLTELPVDEEVVVSNRMVPGPEDNPYVRVRIYEPKEKIEKLPGLLWIHGGGYVLGAPEGDDLLCQRFVKEANCVVVSVDYRLAPEHPYPAPLEDCYAALQWFAKKVDELGVDASRIGVGGQSAGGGLTAALALLARDRKGPELCFQMPLYPMIDDKNNSPSSLEITGNLIWNHDLNEKGWSMYLDGKNGTDDVPVHAAPARATDLTNLPYTYTCVGQLDPFRDETLDYVKRLCQAGVDVEFHLYPGAYHGFETLNPAAAVSQRALAEYVGAVKHVLNREKVVERK", "µM", 50),
    ("EstN7 (Sutcliffiella cohnii; W206A) (protein, recombinant, purified from E. coli BL21(DE3); dimer; catalytic triad S157, D254, H284) MKNRIDPELRAMLDMFPPLNLDDVQATRKAMEEAAQLTELPVDEEVVVSNRMVPGPEDNPYVRVRIYEPKEKIEKLPGLLWIHGGGYVLGAPEGDDLLCQRFVKEANCVVVSVDYRLAPEHPYPAPLEDCYAALQWFAKKVDELGVDASRIGVGGQSAGGGLTAALALLARDRKGPELCFQMPLYPMIDDKNNSPSSLEITGNLIANHDLNEKGWSMYLDGKNGTDDVPVHAAPARATDLTNLPYTYTCVGQLDPFRDETLDYVKRLCQAGVDVEFHLYPGAYHGFETLNPAAAVSQRALAEYVGAVKHVLNREKVVERK", "µM", 1300),
    ("EstN7 (Sutcliffiella cohnii; N211A) (protein, recombinant, purified from E. coli BL21(DE3); dimer; catalytic triad S157, D254, H284) MKNRIDPELRAMLDMFPPLNLDDVQATRKAMEEAAQLTELPVDEEVVVSNRMVPGPEDNPYVRVRIYEPKEKIEKLPGLLWIHGGGYVLGAPEGDDLLCQRFVKEANCVVVSVDYRLAPEHPYPAPLEDCYAALQWFAKKVDELGVDASRIGVGGQSAGGGLTAALALLARDRKGPELCFQMPLYPMIDDKNNSPSSLEITGNLIWNHDLAEKGWSMYLDGKNGTDDVPVHAAPARATDLTNLPYTYTCVGQLDPFRDETLDYVKRLCQAGVDVEFHLYPGAYHGFETLNPAAAVSQRALAEYVGAVKHVLNREKVVERK", "µM", 750),
]

# input for lookup
Input: May I ask what Km has been recorded for EstN7 (Sutcliffiella cohnii; M187A/N211A) (protein, recombinant, purified from E. coli BL21(DE3); dimer; catalytic triad S157, D254, H284) MKNRIDPELRAMLDMFPPLNLDDVQATRKAMEEAAQLTELPVDEEVVVSNRMVPGPEDNPYVRVRIYEPKEKIEKLPGLLWIHGGGYVLGAPEGDDLLCQRFVKEANCVVVSVDYRLAPEHPYPAPLEDCYAALQWFAKKVDELGVDASRIGVGGQSAGGGLTAALALLARDRKGPELCFQMPLYPAIDDKNNSPSSLEITGNLIWNHDLAEKGWSMYLDGKNGTDDVPVHAAPARATDLTNLPYTYTCVGQLDPFRDETLDYVKRLCQAGVDVEFHLYPGAYHGFETLNPAAAVSQRALAEYVGAVKHVLNREKVVERK ?
Output: 1100
